# test.system: HLA-A*24 (human)
# protocol.text: UV-ligand exchange, anti-b2m ELISA; grade: exchange yield >=75%
reported.metric: peptide exchange yield

>>> experimental_result("VYGDVISNI")
"> 75%"
>>> experimental_result("LYWSHPRKF")
"> 75%"
>>> experimental_result("IYTGNISSF")
"> 75%"
>>> experimental_result("AYGTYRSNF")
"> 75%"
>>> experimental_result("VYQGAIRQI")
"> 75%"
>>> experimental_result("SYITKPEKW")
"> 75%"
>>> experimental_result("IYADVGEEF")
"> 75%"
>>> experimental_result("RYAPPPSFSEF")
"> 75%"
>>> experimental_result("AYLLQPSQF")
"> 75%"
>>> experimental_result("YYGILQEKI")
"> 75%"
>>> experimental_result("KYPDIISRI")
"> 75%"
>>> experimental_result("RYSAGWDAKF")
"> 75%"
>>> experimental_result("RYNEKCFKL")
"> 75%"
>>> experimental_result("KWPETPLLL")
"> 75%"
>>> experimental_result("AYLKWISQI")
"> 75%"
>>> experimental_result("RWPKKSAEF")
"> 75%"
